- Assay comment: small-molecule microarray binders of probe aLefty2, primary screen, biochemical, biotinylated probe, 635/667 nm fluorescence (AID 1094);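 also: score merges spot fluorescence near 667 nm with spot signal-to-noise ratio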
- Measurement conditions: higher = more signal
Category scheme (composite z-score): low end = under 0.01, middle = from 0.01 up to 0.1, high end = 0.1 and over

INSERT INTO assay_data (molecule, answer_label) VALUES
  ('COCCCNC(=O)[C@]1(Cc2ccccc2N=[N+]=[N-])N=C(c2ccc(OCCCO)cc2)O[C@@H]1c1ccccc1', 'high end');

stdin: Classify this molecule: COc1cccc(C)c1NC(=O)O[C@H]1[C@H](OC(=O)Nc2ccc3c(c2)OCO3)[C@H](OC(=O)Nc2ccc3c(c2)OCO3)[C@@H](OC)O[C@@H]1CO
stdout: high end

stdin: Record O=C1C2C=CC(C(O)C3CC=CCC3)N(Nc3ccc([N+](=O)[O-])cc3)C2C(=O)N1c1ccccc1 (centres undefined) — which class?
stdout: high end

stdin: Kindly identify the class of COc1ccc([Si](C)(C)[C@@H]2[C@@H](CC(=O)N(CCO)Cc3ccccc3)O[C@]3(C(=O)N(Cc4cccc(I)c4)c4ccccc43)[C@H]2C)cc1 .
stdout: middle

stdin: Sort CC(C)C(=C=CC[C@H](O)c1cccc(OCCO)c1)C[C@H](O)c1ccccn1 into one of the categories.
stdout: low end

stdin: Each molecule maps to one class by composite z-score. Which class for COc1cccc(C)c1NC(=O)O[C@H]1[C@H](OC(=O)Nc2ccccc2-c2ccccc2)[C@@H](OC(=O)Nc2ccccc2-c2ccccc2)[C@@H](OC)O[C@@H]1CO ?
stdout: middle

stdin: // bin(item) where item = C=CCC(OC(C)=O)[C@@H]1[C@@H](N(Cc2ccc(-c3ccccc3)cc2)C(=O)Cc2ccc(OC)cc2)c2cc(OCCCO)ccc2N1C(=O)Cc1ccc(OC)cc1 (some centres undefined)
stdout: middle

stdin: Please let me know in which category the item COC(=O)C(CC#Cc1ccc2c(c1)[C@]1(C(=O)N2)[C@H](c2ccccc2OCCO)N2[C@H](c3ccccc3)[C@H](c3ccccc3)OC(=O)[C@H]2[C@@H]1C(=O)N1CCN(c2ncccn2)CC1)C(=O)OC belongs.
stdout: low end

stdin: Which category fits this record: COC(=O)[C@@]1(Cc2ccc(F)cc2)[C@H]2c3cc(C(=O)N4CCCC4)n(C[C@H](O)CO)c3C[C@H]2CN1C(=O)c1ccccc1
stdout: high end

stdin: Hi there! Could you help me figure out the category for Cc1ccc(S[C@]2(C(=O)NC3CC3)CC(=O)N(C3Cc4ccccc4C3)[C@@H]2c2ccc(CO)cc2I)cc1 please?
stdout: low end

stdin: Any idea which band COc1ccc([Si](C)(C)[C@H]2[C@H](CC(=O)N3CCC[C@H]3CO)O[C@@]3(C(=O)N(Cc4cccc(N5CCCCC5=O)c4)c4ccccc43)[C@@H]2C)cc1 is in?
stdout: low end

---

Let's look at some compounds and their measured composite z-score.
- Measurement target: Calmodulin-1 (Homo sapiens)
- Assay comment: calcium-bound CALM1 binders on microarrays, profiling panel, artefact control for SMM control-protein annotation, biochemical, small-molecule microarray, Cy5-labelled CALM1, plus calcium (AID 1112);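 also: score merges spot fluorescence with signal to noise from triplicate slides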
- Measurement conditions: Cy5-CALM1 binding fluorescence, higher = more signal
Would you mind answering with just the numeric figure?

INSERT INTO assay_data (compound, recorded_number) VALUES
  ('C[C@]12C(=O)N(CCO)[C@@H]3C(=O)N(c4ccc(Cl)cc4)CC=CC31O[C@@H]1/C=C\CCCOC(=O)C12 (stereo partly specified)', 0.186);

stdin: Specify reported composite z-score for the compound shown: [N-]=[N+]=Nc1ccccc1C[C@@]1(C(=O)NCC(O)CO)N=C(c2ccc(OCCCO)cc2)O[C@@H]1c1ccccc1N=[N+]=[N-] (stereo partly specified)
stdout: 0.176

stdin: Return composite z-score for the following compound: C=CCN1C(=O)[C@]2(O[C@H](CCO)[C@@H]([Si](C)(C)c3ccc(OC)cc3)[C@@H]2C)c2cc(N3C(=O)c4ccccc4Oc4ccccc43)ccc21
stdout: 0.323

stdin: Output measured composite z-score for this item: CCOC(=O)C1=CC[C@@H](c2ccccc2)N(S(=O)(=O)c2ccc(C)cc2)[C@@H]1C#N
stdout: 0.325

stdin: Tell me measured composite z-score for C=CCNC(=O)[C@H]1[C@@H]2C(=O)O[C@@H](c3ccccc3)[C@@H](c3ccccc3)N2[C@@H](c2ccc(OCCO)cc2)[C@]12C(=O)N(C(=O)OCCOC)c1ccc(C#CCNC(N)=O)cc12 please.
stdout: 0.152

stdin: Tell me composite z-score reported for COCCOC(=O)N1C(=O)[C@@]2(c3cc(C#CCNC(N)=O)ccc31)[C@H](C(N)=O)[C@H]1C(=O)O[C@H](c3ccccc3)[C@H](c3ccccc3)N1[C@@H]2c1ccc(O)cc1
stdout: 0.662

---

- Measurement target: Luciferin 4-monooxygenase (Photinus pyralis)
- Assay comment: firefly luciferase enzyme inhibitors, primary screen, biochemical, luminescence, purified enzyme, 2006 set (AID 1141);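 also: cell-free assay with purified firefly luciferase at 100 ng per well in PBS; test concentration not given here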
- Measurement conditions: SteadyGlo luminescence, 30 min, higher = more signal, called active from +8 up or from −8 down
Recorded metric: z-score
Reply with just the number.

Some entries whose results are on file:
INSERT INTO measurements (molecule, recorded_metric, recorded_number) VALUES
  ('C=CC[C@H](OC(=O)Nc1ccc(SC)cc1)c1ccc(O)c(F)c1', 'z-score', -1.83),
  ('CCCC1(C(=O)OC)C=C2C(=C(C(C)C)C(=O)C2C)CN1 (centres undefined)', 'z-score', 1.88),
  ('OCCCc1cc[n+](Cc2cc3c(cc2Br)OCO3)cc1', 'z-score', -0.903),
  ('COC(=O)C(CC#Cc1ccc2c(c1)[C@]1(C(=O)N2)[C@H](C(=O)N2CCN(c3ncccn3)CC2)[C@H]2C(=O)O[C@H](c3ccccc3)[C@H](c3ccccc3)N2[C@@H]1c1ccc(O)cc1)C(=O)OC', 'z-score', -0.178),
  ('COC(=O)[C@@]1(Cc2ccc(F)cc2)[C@H]2c3cc(C(=O)N(C)C)n(CCF)c3C[C@H]2CN1C(=O)c1ccccc1', 'z-score', -1.09);

Lab note: next molecule to report on.
stdin: Consider the molecule C=C(CCCC)/C(=C/C[C@@H](OC(C)=O)c1cccc(OCCO)c1)c1cc(C(=O)OC)ccc1OC and give its recorded z-score.
stdout: -0.132

---

Recorded z-score values for a group of compounds are listed next.
- Assay comment: E. coli acrAB mutant growth effects, primary screen, E. coli filamentation inducers, strain DRC39, OD650, 24 h (AID 1178);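 also: growth measured as culture turbidity by optical density at 650 nm; test concentration not given here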
- Measurement conditions: higher = more signal, called active from +8 up or from −8 down
Keep it simple and answer with nothing but the number.

Here is how some compounds turned out for z-score.
INSERT INTO results (compound, recorded_metric, recorded_number) VALUES
  ('C=CCNC(=O)[C@@H]1[C@H]2C(=O)O[C@H](c3ccccc3)[C@H](c3ccccc3)N2[C@H](c2ccc(O)cc2)[C@@]12C(=O)Nc1ccc(C#CC3=CCCCC3)cc12', 'z-score', -0.33),
  ('COc1ccc(CCNC(=O)[C@@]2(c3ccc([N+](=O)[O-])cc3)CC(=O)N(C3CCCCC3)[C@@H]2c2ccc(CO)cc2I)cc1', 'z-score', 0.359),
  ('COCCOC(=O)N1C(=O)[C@@]2(c3cc(C#CCNC(N)=O)ccc31)[C@H](C(=O)N1CCN(c3ncccn3)CC1)[C@H]1C(=O)O[C@H](c3ccccc3)[C@H](c3ccccc3)N1[C@@H]2c1ccc(O)cc1', 'z-score', 0.589),
  ('CN1C(=O)C2C=CC(C(O)c3ccc([N+](=O)[O-])cc3)N(Nc3ccccc3)C2C1=O (configuration not stated)', 'z-score', -0.987),
  ('CO[C@H]1O[C@H](CO)[C@@H](OC(=O)Nc2ccccc2)[C@@H]2OC(=O)[C@@H](Cc3ccccc3)C/C=C/C[C@H](Cc3ccccc3)C(=O)O[C@@H]12', 'z-score', -0.409),
  ('O=C1NC(=O)C2C1C=CC(C(O)C1CCCCC1)N2Nc1ccccn1 (configuration not stated)', 'z-score', -1.02);

stdin: Output measured z-score for this item: C=C[C@H](OC)[C@@H](O)c1ccc(OC)c(O)c1
stdout: 0.37

---

- Measurement target: Epidermal growth factor receptor (Homo sapiens) (UniProt P00533)
- Sequence (P00533 whole entry, looked up): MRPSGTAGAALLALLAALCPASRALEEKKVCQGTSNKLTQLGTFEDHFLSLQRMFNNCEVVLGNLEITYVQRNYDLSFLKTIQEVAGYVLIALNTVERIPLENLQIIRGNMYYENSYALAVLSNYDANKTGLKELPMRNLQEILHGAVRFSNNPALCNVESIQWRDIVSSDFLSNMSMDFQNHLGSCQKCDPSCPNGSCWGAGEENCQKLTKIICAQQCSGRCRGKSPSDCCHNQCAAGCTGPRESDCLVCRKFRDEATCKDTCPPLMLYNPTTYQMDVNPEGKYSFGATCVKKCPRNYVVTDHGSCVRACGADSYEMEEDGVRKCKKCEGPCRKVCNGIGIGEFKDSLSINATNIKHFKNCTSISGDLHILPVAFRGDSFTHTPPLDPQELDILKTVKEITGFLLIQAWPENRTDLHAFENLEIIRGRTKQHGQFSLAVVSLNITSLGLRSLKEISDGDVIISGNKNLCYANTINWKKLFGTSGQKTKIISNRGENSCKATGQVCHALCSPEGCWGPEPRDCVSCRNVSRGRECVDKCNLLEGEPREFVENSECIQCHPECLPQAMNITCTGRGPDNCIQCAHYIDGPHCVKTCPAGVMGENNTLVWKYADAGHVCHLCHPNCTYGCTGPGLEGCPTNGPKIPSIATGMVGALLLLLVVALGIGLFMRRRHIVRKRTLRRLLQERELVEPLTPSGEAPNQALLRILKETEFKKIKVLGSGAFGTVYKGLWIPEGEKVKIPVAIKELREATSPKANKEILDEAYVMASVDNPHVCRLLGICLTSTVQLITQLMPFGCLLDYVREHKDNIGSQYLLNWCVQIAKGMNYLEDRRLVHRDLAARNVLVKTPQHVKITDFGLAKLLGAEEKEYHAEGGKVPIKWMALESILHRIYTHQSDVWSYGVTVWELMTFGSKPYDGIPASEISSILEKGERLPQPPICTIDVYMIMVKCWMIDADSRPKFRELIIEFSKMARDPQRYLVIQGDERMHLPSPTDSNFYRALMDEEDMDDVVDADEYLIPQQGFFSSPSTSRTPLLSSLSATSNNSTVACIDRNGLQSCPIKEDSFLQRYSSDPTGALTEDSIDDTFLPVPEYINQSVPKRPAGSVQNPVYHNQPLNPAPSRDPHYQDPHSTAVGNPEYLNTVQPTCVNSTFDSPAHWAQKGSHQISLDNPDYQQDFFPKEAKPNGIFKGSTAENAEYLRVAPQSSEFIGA
- Assay comment: EGFR binders on small-molecule microarrays, primary screen, biochemical, small-molecule microarray, 635 nm fluorescence (AID 1104);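 also: score merges 667 nm emission intensity with spot signal to noise over triplicate slides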
- Measurement conditions: EGFR binding, higher = more signal
Recorded metric: composite z-score
Respond using a number only.

INSERT INTO measurements (compound, recorded_number) VALUES
  ('CC1CC/C=C\[C@H]2OC34C=CCN(CCN5CCOCC5)C(=O)[C@H]3N(C(CO)C(C)C)C(=O)[C@@H]4C2C(=O)O1 (stereo not given in full)', -0.31),
  ('CC(C)C[C@@H]1NC(=O)[C@@H]2C[C@H](C(=O)NCCCCCNC(=O)CS)[C@H](c3ccc(O)cc3)N2C1=O', 0.135),
  ('Cc1ccc(S(=O)(=O)N2[C@@H](c3ccccc3)C(C(=O)O)=C[C@H]2C(C)(C)C)cc1', 0.374),
  ('CC1C2C(CCCO)=CC(C3C(=O)N(C)C(=O)C23)N1Cc1cccc(OC(F)(F)F)c1 (stereo not given)', 0.0422);

stdin: In one line, give reported composite z-score of the entry COCCOC(=O)N1C(=O)[C@@]2(c3cc(C#CCNC(N)=O)ccc31)[C@H](C(=O)Nc1nc3ccccc3s1)[C@H]1C(=O)O[C@H](c3ccccc3)[C@H](c3ccccc3)N1[C@@H]2c1ccc(O)cc1 .
stdout: 0.195

stdin: Let me know recorded composite z-score for COc1cccc(C)c1NC(=O)O[C@H]1[C@H](OC(=O)Nc2ccccc2-c2ccccc2)[C@@H](OC(=O)Nc2ccccc2-c2ccccc2)[C@@H](OC)O[C@@H]1CO , thanks.
stdout: 0.316
